test system: 565726-208-R1-J5-PDC complex spheroids, growth inhibition; assay: Anticancer human tumor 565726-208-R1-J5-PDC patient-derived pancreatic adenocarcinoma cell line growth inhibition [RAS]; settings: second compound 0.000949 µM; first compound 0.0949 µM; stronger effect = lower value;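 further: spheroids exposed to compounds for seven days before readout; 100% = DMSO vehicle control viability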
Each entry below carries its recorded viability, T/C.
Please state the figure in %; there is no need to write the unit.

Here's what some known entries look like.
>>> result_number("CCc1c2c(nc3ccc(O)cc13)-c1cc3c(c(=O)n1C2)COC(=O)[C@]3(O)CC + CCn1c(-c2cccnc2C(C)OC)c2c3cc(ccc31)N1CCOC(CC(NC(=O)C(C(C)C)N(C)C(=O)C3(F)CCN(C(=O)C#CC(C)(C)N(C)C)CC3)C(=O)N3CCCC(N3)C(=O)OCC(C)(C)C2)C1")
8.88
>>> result_number("CC1(C)CCC(Nc2ncc(C(F)(F)F)c(-c3c[nH]c4c(P(C)(C)=O)c(C#N)ccc34)n2)CN1 (centres undefined) + CCn1c(-c2cccnc2C(C)OC)c2c3cc(ccc31)N1CCOC(CC(NC(=O)C(C(C)C)N(C)C(=O)C3(F)CCN(C(=O)C#CC(C)(C)N(C)C)CC3)C(=O)N3CCCC(N3)C(=O)OCC(C)(C)C2)C1")
32.2
>>> result_number("CCc1c2c(nc3ccc(O)cc13)-c1cc3c(c(=O)n1C2)COC(=O)[C@]3(O)CC + CCn1c(-c2cc(N3CCN(C)CC3)cnc2C(C)OC)c2c3cc(ccc31)-c1csc(n1)CC(NC(=O)C1CC1C)C(=O)N1CCCC(N1)C(=O)OCC(C)(C)C2")
9.45

// query Report viability, T/C for CC1(C)CCC(Nc2ncc(C(F)(F)F)c(-c3c[nH]c4c(P(C)(C)=O)c(C#N)ccc34)n2)CN1 (centres undefined) + CCn1c(-c2cc(N3CCN(C)CC3)cnc2C(C)OC)c2c3cc(ccc31)-c1csc(n1)CC(NC(=O)C1CC1C)C(=O)N1CCCC(N1)C(=O)OCC(C)(C)C2 please.
// result 31.6
